Where do the numbers come from? From PubChem BioAssay AID1963982.

System: 313798-341-R-J2-PDC spheroids, viability
Test: Anticancer human tumor 313798-341-R-J2-PDC patient-derived cervical squamous cell carcinoma cell line growth inhibition [PI3K]
Conditions: second compound 0.0316 µM; first compound 0.0316 µM; active compounds read low; spheroids with HUVEC and MSC
viability, T/C: recorded values
Numbers only here, please. The scale is %.

Reference set (2 entries):
compound: CC1(C)CCC(Nc2ncc(C(F)(F)F)c(-c3c[nH]c4c(P(C)(C)=O)c(C#N)ccc34)n2)CN1 (stereo not drawn) + CC(Nc1ncnc2nc[nH]c12)c1cc2cccc(Cl)c2c(=O)n1-c1ccccc1
property label: viability, T/C
readout value: 54.2
--
compound: Cn1ncc(Cl)c1-c1cc(C(=O)NC(CN)Cc2cccc(F)c2)sc1Cl (stereo not drawn) + CC(Nc1ccc2c(c1)OCCn1cc(N3C(=O)OCC3C(F)F)nc1-2)C(N)=O
property label: viability, T/C
readout value: 102

The value of viability, T/C measured for the compound CC(C)NCC(C(=O)N1CCN(c2ncnc3c2C(C)CC3O)CC1)c1ccc(Cl)cc1 (stereo not drawn) + COc1c(OCCCN2CCOCC2)ccc2c3n(c(=NC(=O)c4cnc(N)nc4)nc12)CCN3 turned out to be 74.8

---

Entries and their viability, T/C
Tested on: 313798-341-R-J2-PDC spheroids, viability
Test: Anticancer human tumor 313798-341-R-J2-PDC cell line growth inhibition [PI3K];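 note: spheroids exposed to compounds for seven days; 100% = DMSO vehicle control viability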
Conditions: second compound 0.0316 µM; first compound 0.000316 µM; active compounds read low; spheroids with HUVEC and MSC
Form entry: value (%) — number only.

molecule: Cn1ncnc1[C@H]1c2n[nH]c(=O)c3cc(F)cc(c23)N[C@@H]1c1ccc(F)cc1 + Cc1nc(NC(=O)N2CCCC2C(N)=O)sc1-c1ccnc(C(C)(C)C(F)(F)F)c1
viability, T/C [%]: 112
//
molecule: Cn1ncnc1[C@H]1c2n[nH]c(=O)c3cc(F)cc(c23)N[C@@H]1c1ccc(F)cc1 + CC(Nc1ncnc2nc[nH]c12)c1cc2cccc(Cl)c2c(=O)n1-c1ccccc1
viability, T/C [%]: 110
//
molecule: CC(=O)c1c(C)c2cnc(Nc3ccc(N4CCNCC4)cn3)nc2n(C2CCCC2)c1=O + CC(Nc1ccc2c(c1)OCCn1cc(N3C(=O)OCC3C(F)F)nc1-2)C(N)=O
viability, T/C [%]: 105

The reported value for Cn1ncnc1[C@H]1c2n[nH]c(=O)c3cc(F)cc(c23)N[C@@H]1c1ccc(F)cc1 + COc1c(OCCCN2CCOCC2)ccc2c3n(c(=NC(=O)c4cnc(N)nc4)nc12)CCN3 in terms of viability, T/C is 68.4

response.value for CC(C)n1nc(-c2ccc3oc(N)nc3c2)c2c(N)ncnc21 + CC(Nc1ccc2c(c1)OCCn1cc(N3C(=O)OCC3C(F)F)nc1-2)C(N)=O (field: viability, T/C) = 94.6

Reported viability, T/C ( CC(C)n1nc(-c2ccc3oc(N)nc3c2)c2c(N)ncnc21 + COc1c(OCCCN2CCOCC2)ccc2c3n(c(=NC(=O)c4cnc(N)nc4)nc12)CCN3 ) = 72.1

---

Tested on: 313798-341-R-J2-PDC spheroids, viability
Experiment: Anticancer human tumor 313798-341-R-J2-PDC cell line growth inhibition [PI3K];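 note: spheroids exposed to compounds for seven days; 100% = DMSO vehicle control viability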
Conditions: second compound 0.0316 µM; first compound 3 µM; active compounds read low; spheroids with HUVEC and MSC
property label: viability, T/C

See these solved cases before continuing.
molecule: Cn1cnc2c(F)c(Nc3ccc(Br)cc3Cl)c(C(=O)NOCCO)cc21 + CC(Nc1ccc2c(c1)OCCn1cc(N3C(=O)OCC3C(F)F)nc1-2)C(N)=O
viability, T/C: 11.8%

molecule: Cn1cnc2c(F)c(Nc3ccc(Br)cc3Cl)c(C(=O)NOCCO)cc21 + Cc1nc(NC(=O)N2CCCC2C(N)=O)sc1-c1ccnc(C(C)(C)C(F)(F)F)c1
viability, T/C: 81.5%

molecule: Cn1cnc2c(F)c(Nc3ccc(Br)cc3Cl)c(C(=O)NOCCO)cc21 + COc1c(OCCCN2CCOCC2)ccc2c3n(c(=NC(=O)c4cnc(N)nc4)nc12)CCN3
viability, T/C: 46.8%

Now consider the entry below.
Reported viability, T/C for Cn1cnc2c(F)c(Nc3ccc(Br)cc3Cl)c(C(=O)NOCCO)cc21 + CC(Nc1ncnc2nc[nH]c12)c1cc2cccc(Cl)c2c(=O)n1-c1ccccc1 was 77.9%
